- Test system: SK-MEL-5 melanoma
- procedure-text: NCI tumour cell line growth inhibition, 48 h
GI50 listing for selected compounds.

Answered cases to consult:
[[record]]
compound = "CCOC(=O)Cc1csc(NC(=O)C(OC(=O)c2ccc(Cl)cc2)c2ccccc2)n1 (stereo not given)"
test_target = "SK-MEL-5 melanoma"
parameter_measured = "GI50"
experimental_result = "18 µM"

[[record]]
compound = "Nc1nc(Sc2ccc([N+](=O)[O-])c3nonc23)c2ncn(C3OC(CO)C(O)C3O)c2n1 (stereo not given)"
test_target = "SK-MEL-5 melanoma"
parameter_measured = "GI50"
experimental_result = "2.4 µM"

[[record]]
compound = "CN1CCN(C)C1c1ccc(C2N(C)CCN2C)cc1"
test_target = "SK-MEL-5 melanoma"
parameter_measured = "GI50"
experimental_result = "24.4 µM"

[[record]]
compound = "Cc1cc(-c2nc3sc(C)cn3c2/C=N/N=C(N)N)c(C)s1"
test_target = "SK-MEL-5 melanoma"
parameter_measured = "GI50"
experimental_result = "1.89 µM"


Consider the record given below.
Return value of GI50 for input `COc1cccc(S(=O)(=O)NC2=NCCN2C(=S)SN2CCn3c2nsc3=S)c1` , no commentary.
37.9 µM

* * *

- System: MOLT-4 leukemia
- procedure-text: NCI tumour cell line growth inhibition, 48 h; in the data active = GI50 below about 0.43 µM; inactive = the rest
# valid calls are 1 for active, -1 for inactive; nothing else

A selection of reference data follows.
[[record]]
compound = "COc1cc(OC)c(C(=O)/C=C/c2ccc(C#N)cc2)c(OC)c1"
class_name = -1

[[record]]
compound = "N#Cc1c(N)nc2c(c1-c1ccc(Cl)cc1)COc1ccc(F)cc1-2"
class_name = -1

[[record]]
compound = "COc1ccc(C)c2sc(N(Cc3cccnc3)C(=O)c3ccc(C#N)cc3)nc12"
class_name = -1

[[record]]
compound = "CCOc1ccc(-c2nc3ccc(-c4nc5ccc(N6CCN(C)CC6)cc5[nH]4)cc3[nH]2)cc1"
class_name = 1

[[record]]
compound = "O=c1[nH]c(-c2ccc(Cl)c(Cl)c2)cn1-c1ccc(Cl)cc1"
class_name = -1


Assay outcome for `O=C(Nc1ccc(I)cc1F)c1cc(Br)ccc1O` : what was it?
-1

How did this test come out for CCOC(=O)Cc1csc(NC(=O)C(OC(=O)c2ccc(Cl)cc2)c2ccccc2)n1 (stereo not drawn) ?
-1

Record request — test call for `O=C(Nc1ccc(Cl)c(C(F)(F)F)c1)Nc1ccc(-c2cccnc2)cc1N1CCC(CO)CC1`
-1

* * *

- Tested on: DMS 273 small cell lung
- procedure-text: NCI tumour cell line growth inhibition, 48 h
Recorded TGI, one value per entry.

[[record]]
compound = "CCc1cccc(C(C)C)c1NC(=O)/C(=N\\NC(N)=O)C(C(=O)OC)c1cnc2ccccc2n1 (centres undefined)"
test_target = "DMS 273 small cell lung"
parameter_measured = "TGI"
experimental_result = "> 100 µM"

[[record]]
compound = "O=CCCn1[nH]c(=O)ccc1=O"
test_target = "DMS 273 small cell lung"
parameter_measured = "TGI"
experimental_result = "> 100 µM"

[[record]]
compound = "COc1ccc(C2(Cl)C(Cl)(C(F)(F)F)C2(Cl)C(F)(F)F)cc1 (centres undefined)"
test_target = "DMS 273 small cell lung"
parameter_measured = "TGI"
experimental_result = "27.4 µM"


Please respond with reported TGI (system DMS 273 small cell lung) for CCOC(=O)C1CC(=O)C=C2CCCCC21 (centres undefined) .
> 100 µM
